target: the molecule itself; assay: native MS; dimerization of apo proteins: 5 µM protein in 150 mM ammonium acetate pH 7.5, 0.5 mM DTT; monomer-dimer distribution quantified
measurementLabel: stoichiometry N
API note: the answer field is a bare number with no unit suffix.

G9a methyltransferase domain (aa residues 913-1193), Del 1163-4 (domain or fragment, human, UniProt Q96KQ7-1 913-1193, looked up, G9a (EHMT2), human, methyltransferase (SET) domain, aa residues 913-1193, patient variant; numbered on NP_006700.3; De novo patient variant made by site-directed mutagenesis; also called p.Ser1163_Lys1164del; c.3487_3492del; source: E. coli BL21-CodonPlus (DE3)-RIPL, pET28a, purified (IMAC, TEV cleavage, SEC, second IMAC); not shown: His6, N-terminal, cleaved) NRAIRTEKIICRDVARGYENVPIPCVNGVDGEPCPEDYKYISENCETSTMNIDRNITHLQHCTCVDDCSSSNCLCGQLSIRCWYDKDGRLLQEFNKIEPPLIFECNQACSCWRNCKNRVVQSGIKVRLQLYRTAKMGWGVRALQTIPQGTFICEYVGELISDAEADVREDDSYLFDLDNKDGEVYCIDARYYGNISRFINHLCDPNIIPVRVFMLHQDLRFPRIAFFSSRDIRTGEELGFDYGDRFWDIKYFTCQCGSEKCKHSAEAIALEQSRLARLD; 2

Let's switch to this protein now.
stoichiometry N for G9a methyltransferase domain (aa residues 913-1193), wild type (domain or fragment, human, UniProt Q96KQ7-1 913-1193, looked up, G9a (EHMT2), human, methyltransferase (SET) domain, aa residues 913-1193; variants numbered on NP_006700.3; His tag removed by TEV protease; also called EHMT2; euchromatin histone lysine methyltransferase 2; source: E. coli BL21-CodonPlus (DE3)-RIPL, pET28a, purified (IMAC, TEV cleavage, SEC, second IMAC); not shown: His6, N-terminal, cleaved) NRAIRTEKIICRDVARGYENVPIPCVNGVDGEPCPEDYKYISENCETSTMNIDRNITHLQHCTCVDDCSSSNCLCGQLSIRCWYDKDGRLLQEFNKIEPPLIFECNQACSCWRNCKNRVVQSGIKVRLQLYRTAKMGWGVRALQTIPQGTFICEYVGELISDAEADVREDDSYLFDLDNKDGEVYCIDARYYGNISRFINHLCDPNIIPVRVFMLHQDLRFPRIAFFSSRDIRTGEELGFDYGDRFWDIKSKYFTCQCGSEKCKHSAEAIALEQSRLARLD is 2

Recorded values, source paper PMC13462943.
